What MIC was measured for each of the following?
tested on: Proteus vulgaris; assay: Antimicrobial activity against Proteus vulgaris ATCC 6896 by twofold broth dilution method; assay type: functional
Quick note: give the figure in µg/mL, leave out the unit.

// returns reported MIC for input Cc1cc(=O)oc2cc(OCCCCCOc3ccc4c(C)cc(=O)oc4c3)ccc12
512

// returns reported MIC for input Cc1cc(=O)oc2cc(OCc3ccc(Cn4cncn4)cc3)ccc12.Cl
16

// returns reported MIC for input Cc1cc(=O)oc2cc(OCCCCn3cncn3)ccc12.Cl
8

// returns reported MIC for input CCn1cc(C(=O)O)c(=O)c2cc(F)c(N3CCNCC3)nc21
1

// returns reported MIC for input Cc1cc(=O)oc2cc(OCCCCOc3ccc4c(C)cc(=O)oc4c3)ccc12
256

// returns reported MIC for input Cc1cc(=O)oc2cc(OCCCCCCBr)cc(OCCCCCCBr)c12
512
